Values were extracted from patent US10428140B2.

Biological target: T1, human EphA1 (Homo sapiens, UniProt P21709)
T1 construct: a protein of the extracellular region of each human Eph receptor fused with the SEAP protein and the His tag; made in house; host or cells: Expi293F cells (culture supernatant)
T1 sequence (P21709 26-547 limits assumed): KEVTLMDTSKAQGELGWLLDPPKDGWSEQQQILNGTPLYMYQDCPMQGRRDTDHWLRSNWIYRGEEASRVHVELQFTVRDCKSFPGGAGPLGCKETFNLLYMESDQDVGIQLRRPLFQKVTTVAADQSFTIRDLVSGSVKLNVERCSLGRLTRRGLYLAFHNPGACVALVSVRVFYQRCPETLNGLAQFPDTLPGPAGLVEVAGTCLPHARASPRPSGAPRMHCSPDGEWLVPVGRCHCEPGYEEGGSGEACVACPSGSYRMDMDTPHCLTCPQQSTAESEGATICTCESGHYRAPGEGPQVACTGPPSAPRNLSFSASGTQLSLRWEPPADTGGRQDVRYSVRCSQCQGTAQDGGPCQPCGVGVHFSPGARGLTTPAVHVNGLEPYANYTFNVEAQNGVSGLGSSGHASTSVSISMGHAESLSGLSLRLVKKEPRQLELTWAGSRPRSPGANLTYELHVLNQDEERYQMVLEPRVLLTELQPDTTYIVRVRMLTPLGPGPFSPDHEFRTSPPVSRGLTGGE
Test: Selectivity ELISA of humanized antibodies for human Eph receptor
Assay type: binding
Conditions: coated protein 1 nM
Assignment: determine reported hEphA1-SEAP-: absorbance at 450 nm, percentage with respect to hEphA4-SEAP-His as 100% for the given molecules.
# value in %; strip the unit string

For 90 (antibody, V domains shown, constant regions without entry; synthetic humanized antibody light chain variable region sequence; synthetic humanized antibody heavy chain variable region sequence) VL: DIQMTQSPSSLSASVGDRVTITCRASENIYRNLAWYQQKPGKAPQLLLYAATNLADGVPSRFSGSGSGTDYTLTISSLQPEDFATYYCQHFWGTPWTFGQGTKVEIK VH: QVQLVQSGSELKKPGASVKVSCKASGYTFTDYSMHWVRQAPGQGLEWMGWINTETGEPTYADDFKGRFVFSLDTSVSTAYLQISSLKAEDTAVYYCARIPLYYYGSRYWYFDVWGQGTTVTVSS the molecule record lists hEphA1-SEAP-: absorbance at 450 nm, percentage with respect to hEphA4-SEAP-His as 100% as 5.1

For 88 (antibody, V domains shown, constant regions without entry; synthetic humanized antibody light chain variable region sequence; synthetic humanized antibody heavy chain variable region sequence) VL: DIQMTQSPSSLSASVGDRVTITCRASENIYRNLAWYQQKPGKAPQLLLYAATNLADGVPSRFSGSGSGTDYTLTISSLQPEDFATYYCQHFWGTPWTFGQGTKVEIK VH: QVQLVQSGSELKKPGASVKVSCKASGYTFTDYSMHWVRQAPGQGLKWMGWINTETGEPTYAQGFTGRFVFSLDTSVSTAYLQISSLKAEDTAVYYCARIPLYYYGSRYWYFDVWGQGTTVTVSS the molecule record lists hEphA1-SEAP-: absorbance at 450 nm, percentage with respect to hEphA4-SEAP-His as 100% as 5.8

For 84 (antibody, V domains shown, constant regions without entry; synthetic humanized antibody light chain variable region sequence; synthetic humanized antibody heavy chain variable region sequence) VL: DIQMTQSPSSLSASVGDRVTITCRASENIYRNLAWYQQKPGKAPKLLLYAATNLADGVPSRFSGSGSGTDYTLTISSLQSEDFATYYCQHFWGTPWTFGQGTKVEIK VH: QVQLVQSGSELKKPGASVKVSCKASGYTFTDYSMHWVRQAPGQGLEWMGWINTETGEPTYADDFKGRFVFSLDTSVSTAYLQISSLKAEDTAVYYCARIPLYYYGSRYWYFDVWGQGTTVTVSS the molecule record lists hEphA1-SEAP-: absorbance at 450 nm, percentage with respect to hEphA4-SEAP-His as 100% as 5.2
